- Test system: Rhodanobacter sp. FW104-10B01
- Condition description: medium / electron acceptor: 10B01 R2A/aerobic
Each record here notes measured IC50 growth inhibition.

Some molecules with known IC50 growth inhibition results, for comparison:
Molecule	IC50 growth inhibition
[Cl][Hg][Cl] [mercury (II) chloride]	< 0.00244 mM
O.O.[Na+].[Na+].[O]=[W](=[O])([O-])[O-] [Sodium tungstate dihydrate]	> 500 mM
[Cl][Pd][Cl] [Palladium(II) chloride]	> 5 mM
[Ce+3].[Cl-].[Cl-].[Cl-] [Cerium(III) chloride]	< 0.244 mM
OP(O)(O)=S [Sodium thiophosphate tribasic hydrate]	> 50 mM

For the next question, use this molecule.
Exam item: Tell me IC50 growth inhibition reported for O=C(O)CN(CC(=O)O)CC(=O)O
Marked response: > 250 mM

====

Known IC50 growth inhibition of a selection of compounds
- System: Pseudomonas fluorescens FW300-N2E2
- Condition description: medium / electron acceptor: N2E2 Glucose/aerobic
Counter-ions that a name gives are not always drawn.

// known answers, use as guide
Compound	IC50 growth inhibition
[O-][Cl+]O [Sodium Chlorite]	< 2.44 µM
OP(O)O [Sodium phosphite dibasic pentahydrate]	< 244 µM
O.O.O.O.O.O.O.O=[As]([O-])([O-])O.[Na+].[Na+] [Sodium arsenate dibasic heptahydrate]	< 244 µM
O.O=[Te]([O-])[O-].[K+].[K+] [Potassium tellurite hydrate]	< 2.44 µM

Exam item: Quickly give me recorded IC50 growth inhibition for [Ca+2].[Cl-].[Cl-] [Calcium chloride dihydrate]
Marked response: > 500000 µM

Exam item: Supply IC50 growth inhibition value. Item: O.O.O.O.O.O.[Cl][Cr]([Cl])[Cl] [Chromium(III) Chloride Hexahydrate]
Marked response: < 2.44 µM

Exam item: Consider the compound [Cl-].[Cs+] [Cesium chloride] and give its recorded IC50 growth inhibition.
Marked response: < 244 µM

Exam item: Determine its reported IC50 growth inhibition: OB1OB2OB(O)OB(O1)O2 [sodium tetraborate decahydrate]
Marked response: > 5000 µM

Exam item: For the compound CC(=O)[O-].[Tl+] [Thallium(I) acetate] , report IC50 growth inhibition.
Marked response: < 2.44 µM

Exam item: Kindly indicate its recorded IC50 growth inhibition. Item: O.O=[Te](=O)([O-])[O-].[K+].[K+] [potassium tellurate hydrate]
Marked response: > 500 µM

Exam item: Report measured IC50 growth inhibition; entry is O.O.O.O.O.O.[Cl-].[Cl-].[Co+2] [Cobalt chloride hexahydrate]
Marked response: < 2.44 µM

Exam item: Recall and state the measured IC50 growth inhibition for [K+].[K+].[O]=[Cr](=[O])([O-])[O-] [Potassium chromate] .
Marked response: < 244 µM

Exam item: Given O=[Se]([O-])[O-].[Na+].[Na+] [Sodium selenite pentahydrate] , respond with its IC50 growth inhibition.
Marked response: < 244 µM

Exam item: Retrieve IC50 growth inhibition measured for [Cl][Bi]([Cl])[Cl] [bismuth(III) chloride] and print it.
Marked response: 10.3 µM

Exam item: Please report the measured IC50 growth inhibition for [Cl-].[Cl-].[Zn+2] [Zinc chloride]
Marked response: < 2.44 µM

Exam item: Respond only with IC50 growth inhibition recorded for [Na+].[Na+].[O]=[Mo](=[O])([O-])[O-] [Sodium molybdate]
Marked response: 20300 µM

Exam item: Give IC50 growth inhibition for O=P(O)(O)OP(=O)(O)O [Sodium pyrophosphate dibasic]
Marked response: 29400 µM

Exam item: State its IC50 growth inhibition: [Cl][Ag] [silver chloride]
Marked response: 139 µM

Exam item: Dear colleague, please send me the reported IC50 growth inhibition for O=C(O)C[C@H](NCCN[C@@H](CC(=O)O)C(=O)O)C(=O)O [Ethylenediamine-N,N'-disuccinic acid] when you can.
Marked response: < 122 µM

Exam item: # return recorded IC50 growth inhibition for entry [Cl][Fe]([Cl])[Cl] [Ferric chloride]
Marked response: > 50000 µM

Exam item: Provide measured IC50 growth inhibition value, entry: O.O.O.O.O.[Cd+2].[Cd+2].[Cl-].[Cl-].[Cl-].[Cl-] [Cadmium chloride hemipentahydrate]
Marked response: < 2.44 µM

Exam item: Return IC50 growth inhibition for the following compound: O=[N+]([O-])[O-].[Na+] [Sodium nitrate]
Marked response: 275000 µM

Exam item: Consider the compound NO [Hydroxylamine hydrochloride] and give its recorded IC50 growth inhibition.
Marked response: < 244 µM

Exam item: Fill in IC50 growth inhibition for record O.O.O.O.O.O.[Al+3].[Cl-].[Cl-].[Cl-] [Aluminum chloride hydrate]
Marked response: > 5000 µM

Exam item: Tell us which IC50 growth inhibition value is on record for OP(O)(O)=S [Sodium thiophosphate tribasic hydrate]
Marked response: > 50000 µM

Exam item: Specify measured IC50 growth inhibition for O=NO [Sodium nitrite] .
Marked response: 17300 µM

Exam item: Look up and report measured IC50 growth inhibition for this entry: Cl.N [Ammonium chloride]
Marked response: 354000 µM

Exam item: Assign IC50 growth inhibition to the following record: [O-][I+2]([O-])O [sodium iodate]
Marked response: 4720 µM
